Origin of the recorded values: paper PMC2924936

# ASSAYED_SYSTEM: UniProt P16603
# MEASUREMENT_PROTOCOL: SPR
# Type: binding
METRIC: Kd (nM)

CHEM_SMILES: Cc1cc2nc3c(=O)[nH]c(=O)nc-3n(C[C@H](O)[C@H](O)[C@H](O)COP(=O)(O)O)c2cc1C
METRIC: Kd
REPORTED_MEASUREMENT: 300

###

# ASSAYED_SYSTEM: yeast NADPH-cytochrome P450 reductase (yCPR) (Saccharomyces cerevisiae, UniProt P16603)
# Sequence (P16603 34-691): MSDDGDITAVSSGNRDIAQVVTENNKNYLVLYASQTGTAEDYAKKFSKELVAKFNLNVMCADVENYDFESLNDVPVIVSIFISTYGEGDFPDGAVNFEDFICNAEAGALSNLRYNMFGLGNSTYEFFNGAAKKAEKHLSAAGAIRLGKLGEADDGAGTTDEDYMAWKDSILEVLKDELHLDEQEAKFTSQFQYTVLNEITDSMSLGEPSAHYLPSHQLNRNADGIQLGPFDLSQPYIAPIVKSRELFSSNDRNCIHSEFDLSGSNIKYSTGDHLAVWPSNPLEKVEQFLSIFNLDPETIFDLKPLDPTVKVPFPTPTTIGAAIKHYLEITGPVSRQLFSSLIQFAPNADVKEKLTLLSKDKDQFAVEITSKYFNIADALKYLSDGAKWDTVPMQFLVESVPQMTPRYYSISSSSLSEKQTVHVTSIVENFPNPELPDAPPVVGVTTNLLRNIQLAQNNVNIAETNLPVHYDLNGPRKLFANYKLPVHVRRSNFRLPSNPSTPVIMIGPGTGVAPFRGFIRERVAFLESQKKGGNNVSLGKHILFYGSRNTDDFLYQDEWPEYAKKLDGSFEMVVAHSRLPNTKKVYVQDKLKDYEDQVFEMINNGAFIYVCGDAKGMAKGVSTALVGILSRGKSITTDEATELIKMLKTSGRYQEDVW
# MEASUREMENT_PROTOCOL: SPR
# Format: binding
METRIC: Kd (nM)

COMPOUND: Cc1cc2nc3c(=O)[nH]c(=O)nc-3n(C[C@H](O)[C@H](O)[C@H](O)COP(=O)(O)OP(=O)(O)OC[C@H]3O[C@@H](n4cnc5c(N)ncnc54)[C@H](O)[C@@H]3O)c2cc1C [compound 8, FAD]
METRIC: Kd
REPORTED_MEASUREMENT: 2300
